Test system: human breast adenocarcinoma (MCF-7) cells
Assay: MTS antiproliferation assay, MCF-7 cells
Format: cell-based
Conditions: Homo sapiens, MCF7, 72 h, read-out: IC50 ± SE
value type: pIC50
For clarity, pIC50 is expressed as the negative log10 of concentration in mol/L.

Task: Look at this compound and give its reported pIC50. Nc1nc2nc[nH]c2c(=S)[nH]1 [Compound 6-TG, 6-thioguanine, reference compound]
Output: 6.38

These data points were gathered from paper PMC5434479.
